Ref: ChEMBL document CHEMBL1143456

molecular target: Serotonin 1 receptors; 5-HT1B & 5-HT1D (Homo sapiens) (UniProt P28222+P28221); experiment: Selectivity towards human 5-hydroxytryptamine 1B receptor to that of 5-hydroxytryptamine 1D receptor; type: protein assay
Binary call on Selectivity: Criterion met from 5 upward, Criterion not met beneath that.

# input Item CCN1[C@H](C)CN(c2cc3c(cc2OC)CCN3C(=O)c2ccc(-c3cccc(C)n3)c3ccccc23)C[C@@H]1C with Selectivity of 5 or above?
# output Criterion met

# input Item CN1CCN(c2cc3c(cc2Cl)CCN3C(=O)Nc2ccc(-c3ccncc3)c3ccccc23)CC1 with Selectivity of 5 or above?
# output Criterion not met

# input Item COc1cc2c(cc1N1CCN(C)CC1)N(C(=O)Nc1cccc(Cl)c1Cl)CC2 with Selectivity of 5 or above?
# output Criterion not met

# input Item COc1cc2c(cc1N1C[C@@H](C)N(C)[C@@H](C)C1)N(C(=O)Cc1cccc([N+](=O)[O-])c1)CC2 with Selectivity of 5 or above?
# output Criterion met

# input Item CCCN1[C@H](C)CN(c2cc3c(cc2OC)CCN3C(=O)c2ccc(-c3cccc(C)n3)c3ccccc23)C[C@@H]1C with Selectivity of 5 or above?
# output Criterion not met

# input Item COc1cc2c(cc1N1CCN(C)CC1)N(C(=O)Cc1cccc([N+](=O)[O-])c1)CC2 with Selectivity of 5 or above?
# output Criterion not met

# input Item COc1cc2c(cc1N1CCN(C)CC1)N(C(=O)c1ccc(-c3cccc(C)n3)c3ccccc13)CC2 with Selectivity of 5 or above?
# output Criterion met

# input Item COc1cc2c(cc1N1C[C@@H](C)N[C@@H](C)C1)N(C(=O)c1ccc(-c3cccc(C)n3)c3ccccc13)CC2 with Selectivity of 5 or above?
# output Criterion not met

# input Item COc1cc2c(cc1N1C[C@@H](C)N(C)[C@@H](C)C1)N(C(=O)c1ccc(-c3cccc(C)n3)c3ccccc13)CC2 with Selectivity of 5 or above?
# output Criterion met

# input Item COc1cc2c(cc1N1C[C@@H](C)N(C)[C@@H](C)C1)N(C(=O)Nc1cccc(Cl)c1Cl)CC2 with Selectivity of 5 or above?
# output Criterion met
